System: HaCaT
METHOD_DESCRIPTION: In vitro phototoxicity test (neutral red) on HaCaT
Format: cell-based, human
STUDY_CONDITIONS: +UVA 5.0 J/cm2; 62.5 μmol/l
I'd be grateful if you could share measured HaCaT viability for these entries.
Give the number; % control is assumed, so skip it.

Memo: OCc1ccc(CNc2ncnc3c2ncn3C2CCCO2)o1 (stereo not shown) , reported HaCaT viability: 120.78

get_value(item= Clc1nc(NCC2CCCO2)c2ncn(C3CCCO3)c2n1 (stereo not shown) , readout=HaCaT viability) returns 125.8

Lab note: c1csc(CNc2ncnc3c2ncn3C2CCCO2)c1 (stereo not shown) gave HaCaT viability of 129.9

The recorded HaCaT viability for entry Clc1nc(NCc2ccco2)c2ncn(C3CCCO3)c2n1 (stereo not shown) equals 115.7
